tested on: HS 578T breast; assay: NCI tumour cell line growth inhibition, 48 h
# TGI per entry
Quantity name: TGI

* O=C1C2=C(c3ccccc31)C(c1ccccc1)N1C(=O)CSC1=N2 (configuration not stated) | 82.2 µM
* CSc1cc(-c2ccccn2)nc(-c2ccccn2)c1 | 48.9 µM
* CCOC(=O)C[n+]1cccc(C2(c3cc4ccccc4[nH]3)OCCO2)c1 | > 100 µM
* COc1cc2oc(=O)cc(C)c2cc1O | > 100 µM
* O=C(CCCCCCCCC(=O)N1C(=O)CC(=O)N(c2ccccc2)C1=S)N1C(=O)CC(=O)N(c2ccccc2)C1=S | > 100 µM
* CC(=O)OC1C(C)OC(OC(=O)C2CCC3C(C2)OC2(CC(OC(=O)/C=C/c4ccccc4)C(C)CO2)C32CO2)C(OC2OC(C)C(O)C(OC(C)=O)C2O)C1O (configuration not stated) | < 0.01 µM
* O=C(CCCCCC(=O)N1CC(CCl)c2ccc([N+](=O)[O-])cc21)N1CC(CCl)c2ccc([N+](=O)[O-])cc21 (configuration not stated) | > 100 µM
* Cc1cn(CCCCCCC2=NCCCN2)c(=O)[nH]c1=O | > 100 µM
* C(/Cc1ccc2c(c1)OCO2)=N\NC1=NCCN1 | > 100 µM
* COc1cccc(CSCC(=O)O)c1 | > 100 µM
* CC(=O)OC(Cc1ccc2ccccc2n1)(C(F)(F)F)C(F)(F)F | 6.58 µM
* Cc1ccc(NC(=O)C(Cc2c[nH]c3ccccc23)NC(=O)Oc2ccccc2)cc1C (configuration not stated) | > 100 µM
* Clc1ccc(-c2csc(Nc3cccc(-c4csc(-c5ccccc5)n4)c3)n2)cc1 | > 50 µM
* CCN(Cc1ccc(F)cc1)c1ccc(CO)c(C)c1 | 64.8 µM
* S=c1[nH]nc(Cc2ccccc2)c(=S)[nH]1 | > 100 µM
* C=CCc1cc(-c2cc(CC=C)c(O)c(CN(CC)CC)c2)cc(CN(CC)CC)c1O | > 100 µM
* COc1ccc2c(c1)C/C(=C\c1cccc3ccccc13)C2=O | > 100 µM

* * *

test system: UO-31 renal; assay: NCI tumour cell line growth inhibition, 48 h
# TGI per entry
Quantity name: TGI (µM)

- COc1ccc(C(c2ccc(OCCN(C)C)cc2)c2cc3ccccc3c3ccccc23)cc1 (centres undefined): 2.9
- Nc1ccccc1.[C-]#[O+].[C-]#[O+].[C-]#[O+].[C-]#[O+].[C-]#[O+].[Cr]: 9.66
- O=C1C=CC(=C(c2ccc(O)cc2)c2ccc(O)cc2)C=C1: 31.1
- CSC1C(=O)Nc2ccc3ccccc3c21 (centres undefined): 33.2
- CCN(Cc1ccc(F)cc1)c1ccc(CO)c(C)c1: 25.1
- COc1cccc(-c2ccc3c(c2)C2CCN(Cc4ccccc4)C3C2)c1 (centres undefined): 21.6

* * *

tested on: UO-31 renal; test: NCI tumour cell line growth inhibition, 48 h
Quantity name: TGI

- S=c1[nH]nc(Cc2ccccc2)c(=S)[nH]1: > 100 µM
- COc1ccc(/C=C2\CCS(=O)(=O)c3ccccc3C2=O)cc1OC: > 100 µM
- COc1ccc2c(c1)C/C(=C\c1cccc3ccccc13)C2=O: > 100 µM

* * *

tested on: COLO 205 colon; test: NCI tumour cell line growth inhibition, 48 h
# TGI per entry
Quantity name: TGI

• Cc1nnc2c3nnc(C)n3c3ccccc3n12 = > 100 µM
• C(=Nc1ccc(-c2nc3ccccc3[nH]2)cc1)c1ccc[nH]1 = > 100 µM
• CC(=O)OC1=CC2=CC[C@H]3[C@@H]4CCC(=O)[C@@]4(C)CC(=O)[C@]3(S)[C@@]2(C)CC1 = > 100 µM
